system: Histoplasma capsulatum; assay: Antifungal activity against Histoplasma capsulatum assessed as growth inhibition after 3 days by standard broth dilution technique; type: functional; conditions: 72 h
outcomeMeasure: MIC (µg/mL)
# number only, unit µg/mL dropped from output

Some solved entries appear below for comparison.
>>> reportedmeasurement("CC[C@H]1O[C@@H](/C(C)=C/[C@H](C)/C=C/[C@H]2[C@@H](C)[C@@H]2/C=C/[C@@H]2O[C@H](CCO)C[C@@](O)(CC)[C@H]2O)CC=C1C")
1.56
>>> reportedmeasurement("CC[C@H]1O[C@@H](/C(C)=C/[C@H](C)/C=C/[C@H]2[C@@H](C)[C@@H]2/C=C/[C@@H]2O[C@H](CCO)C[C@@](O)(c3ccccc3)[C@H]2O)CC=C1C")
3.12

Req: Item `CC[C@H]1O[C@@H](/C(C)=C/[C@H](C)/C=C/[C@H]2[C@@H](C)[C@@H]2/C=C/[C@@H]2O[C@H](CCO)C[C@](C)(O)[C@H]2O)CC=C1C` with Histoplasma capsulatum - MIC?
Resp: 0.78

Req: Moving on to `CC[C@H]1O[C@@H](/C(C)=C/[C@H](C)/C=C/[C@H]2[C@@H](C)[C@@H]2/C=C/[C@@H]2O[C@H](CC(=O)O)C[C@@H](O)[C@H]2O)CC=C1C`
Resp: 0.78

Req: Moving on to CC[C@H]1O[C@@H](/C(C)=C/[C@H](C)/C=C/[C@H]2[C@@H](C)[C@@H]2/C=C/[C@@H]2O[C@H](CC(C)O)C[C@H](O)[C@H]2O)CC=C1C (stereo partly specified)
Resp: 0.098

Req: Moving on to `CC[C@H]1O[C@@H](/C(C)=C/[C@H](C)/C=C/[C@H]2[C@@H](C)[C@@H]2/C=C/[C@@H]2O[C@H](CC(O)(C(C)C)C(C)C)C[C@H](O)[C@H]2O)CC=C1C`
Resp: 50

* * *

tested on: Candida albicans; test: Antifungal activity against Candida albicans by standard broth dilution technique; format: functional, organism-based
Calls of active or inactive are those of the source. The calls are words filed in the database; no cut-off is given here.
outcomeMeasure: Activity

>>> reportedmeasurement("CC[C@H]1O[C@@H](/C(C)=C/[C@H](C)/C=C/[C@H]2[C@@H](C)[C@@H]2/C=C/[C@@H]2O[C@H](CC=O)C[C@H](O)[C@H]2O)CC=C1C")
"inactive"
>>> reportedmeasurement("CC[C@H]1O[C@@H](/C(C)=C/[C@H](C)/C=C/[C@H]2[C@@H](C)[C@@H]2/C=C/[C@@H]2O[C@H](CC(=O)OC)C[C@@H](O)[C@H]2O)CC=C1C")
"inactive"
>>> reportedmeasurement("CC[C@H]1O[C@@H](/C(C)=C/[C@H](C)/C=C/[C@H]2[C@@H](C)[C@@H]2/C=C/[C@@H]2O[C@H](CCOC(=O)Nc3ccccc3)C[C@H](OC(=O)Nc3ccccc3)[C@H]2OC(=O)Nc2ccccc2)CC=C1C")
"inactive"

* * *

system: Histoplasma capsulatum; assay: Antifungal activity against Histoplasma capsulatum assessed as growth inhibition after 3 days by standard broth dilution technique; type: functional; settings: 72 h
outcomeMeasure: MIC (µg/mL)
# number only, unit µg/mL dropped from output

Some solved entries appear below for comparison.
>>> reportedmeasurement("CC[C@H]1O[C@@H](/C(C)=C/[C@H](C)/C=C/[C@H]2[C@@H](C)[C@@H]2/C=C/[C@@H]2O[C@H](CCO)C[C@H](O)[C@H]2O)CC=C1C")
0.098
>>> reportedmeasurement("CC[C@H]1O[C@@H](/C(C)=C/[C@H](C)/C=C/[C@H]2[C@@H](C)[C@@H]2/C=C/[C@@H]2O[C@H](CC(=O)O)C/C(=N/O)[C@H]2O)CC=C1C")
3.12
>>> reportedmeasurement("CC[C@H]1O[C@@H](/C(C)=C/[C@H](C)/C=C/[C@H]2[C@@H](C)[C@@H]2/C=C/[C@@H]2O[C@H](CC=O)C[C@H](O)[C@H]2O)CC=C1C")
0.78
>>> reportedmeasurement("CC[C@H]1O[C@@H](/C(C)=C/[C@H](C)/C=C/[C@H]2[C@@H](C)[C@@H]2/C=C/[C@@H]2O[C@H](CC(O)C(C)(C)C)C[C@H](O)[C@H]2O)CC=C1C (some centres not stated)")
6.25
>>> reportedmeasurement("CC[C@H]1O[C@@H](/C(C)=C/[C@H](C)/C=C/[C@H]2[C@@H](C)[C@@H]2/C=C/[C@@H]2O[C@H](CC(O)c3ccccc3)C[C@H](O)[C@H]2O)CC=C1C (some centres not stated)")
1.56

Req: Could you share which MIC value was measured for `CC[C@H]1O[C@@H](/C(C)=C/[C@H](C)/C=C/[C@H]2[C@@H](C)[C@@H]2/C=C/[C@@H]2O[C@H](CC(C)(C)O)C[C@H](O)[C@H]2O)CC=C1C` ?
Resp: 0.78

Req: Moving on to `CCC(=O)C[C@@H]1C[C@H](O)[C@@H](O)[C@H](/C=C/[C@H]2[C@H](C)[C@@H]2/C=C/[C@@H](C)/C=C(\C)[C@H]2CC=C(C)[C@@H](CC)O2)O1`
Resp: 0.78

Req: Moving on to `CC[C@H]1O[C@@H](/C(C)=C/[C@H](C)/C=C/[C@H]2[C@@H](C)[C@@H]2/C=C/[C@@H]2O[C@H](CC(=O)OC)CC(=O)[C@H]2O)CC=C1C`
Resp: 0.39

Reference for the values: ChEMBL document CHEMBL3244163
